Target: NRAS Q61R (Homo sapiens (Human), UniProt P01111+P62937, Q61R)
Sequence (P01111 whole entry Q61R): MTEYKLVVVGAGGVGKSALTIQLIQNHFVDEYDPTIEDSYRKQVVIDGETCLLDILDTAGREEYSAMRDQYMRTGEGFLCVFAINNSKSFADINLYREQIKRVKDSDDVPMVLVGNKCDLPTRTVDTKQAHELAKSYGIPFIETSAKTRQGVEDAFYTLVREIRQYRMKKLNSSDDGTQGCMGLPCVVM
Sequence (P62937 whole entry): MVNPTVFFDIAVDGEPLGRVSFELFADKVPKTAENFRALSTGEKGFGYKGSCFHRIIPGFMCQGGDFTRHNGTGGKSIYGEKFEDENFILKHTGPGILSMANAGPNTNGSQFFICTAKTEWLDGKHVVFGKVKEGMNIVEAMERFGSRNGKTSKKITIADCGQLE
Experiment: Ras-Raf (BRAF RBD) disruption / FRET / MOA assay, NRAS Q61R
Format: biochemical
Conditions: NRAS Q61R; Ras-Raf disruption/FRET/MOA assay; read-out: IC50* NRAS Q61R FRET data
pIC50: −log10 of the molar value.
# pIC50 per record follows

Use these answered entries as a reference point.
C=CC(=O)N1CC[C@H]2[C@@H](C1)CN2C(=O)N(C)[C@H](C(=O)N[C@H]1Cc2nc(cs2)-c2ccc3c(c2)c(c(-c2cccnc2[C@H](C)OC)n3CC)CC(C)(C)COC(=O)[C@@H]2CCCN(N2)C1=O)C(C)C (atropisomer, axis not shown) = 6.00 to 7.00
CO[C@@H](C)c1ncccc1-c1c2c3cc(ccc3n1CC(F)(F)F)-c1csc(n1)C[C@H](NC(=O)[C@H](C(C)C)N(C)C(=O)N1C[C@@H]3OCCN(C(=O)/C=C/C(F)F)[C@@H]3C1)C(=O)N1CCC[C@H](N1)C(=O)OCC(C)(C)C2 (atropisomer, axis not shown) = 6.00 to 7.00
CCn1c(-c2cccnc2[C@H](C)OC)c2c3cc(ccc31)-c1cccc(c1)C[C@H](NC(=O)[C@H](C(C)C)N(C)C(=O)[C@H]1CCN(C(=O)C#CC(C)(C)N(C)C)C1)C(=O)N1CCC[C@H](N1)C(=O)OCC(C)(C)C2 (atropisomer, axis not shown) = 5.00 to 6.00
CCn1c(-c2cccnc2[C@H](C)OC)c2c3cc(ccc31)-c1cccc(c1)C[C@H](NC(=O)[C@H](C(C)C)N1CC[C@@]3(CCN(C(=O)C#C[C@H]4COCCN4C)C3)C1=O)C(=O)N1CCC[C@H](N1)C(=O)OCC(C)(C)C2 (atropisomer, axis not shown) = 5.00 to 6.00
C=CC(=O)N1CCC2(CCN(C(=O)N(C)[C@H](C(=O)N[C@H]3Cc4nc(cs4)-c4ccc5c(c4)c(c(-c4cccnc4[C@H](C)OC)n5CC)CC(C)(C)COC(=O)[C@@H]4CCCN(N4)C3=O)C(C)C)CC2)C1 (atropisomer, axis not shown) = 6.00 to 7.00
C=CC(=O)N1CC[C@H](C(=O)N(C)[C@H](C(=O)N[C@H]2Cc3cccc(c3)-c3ccc4c(c3)c(c(-c3cc(CN(C)C)cnc3[C@H](C)OC)n4CC)CC(C)(C)COC(=O)[C@@H]3CCCN(N3)C2=O)C(C)C)C1 (atropisomer, axis not shown) = 5.00 to 6.00

Would you kindly look at the next entry?
Data request: Item: CCn1c(-c2cccnc2[C@H](C)OC)c2c3cc(ccc31)-c1cccc(c1)C[C@H](NC(=O)[C@H](C(C)C)N1CC[C@]3(CCN(C(=O)C#C[C@@]4(N(C)C)CCOC4)C3)C1=O)C(=O)N1CCC[C@H](N1)C(=O)OCC(C)(C)C2 (atropisomer, axis not shown) Test system: NRAS Q61R (Homo sapiens (Human), UniProt P01111+P62937, Q61R) Read-out: pIC50 Value: ?
Data returned: 5.00 to 6.00

====

Biological target: NRAS Q61K (Homo sapiens (Human), UniProt P01111+P62937, Q61K)
Sequence (P01111 whole entry Q61K): as the sequence (P01111 whole entry Q61R) above, with R61K counted along it
Sequence (P62937 whole entry): as the sequence (P62937 whole entry) above
Assay: Ras-Raf (BRAF RBD) disruption / FRET / MOA assay, NRAS Q61K
Type: biochemical
Settings: NRAS Q61K; Ras-Raf disruption/FRET/MOA assay; read-out: IC50* NRAS Q61K FRET data
# IC50 per record follows

Data request: Reported IC50, compound CCn1c(-c2cccnc2[C@H](C)OC)c2c3cc(ccc31)-c1csc(n1)C[C@H](NC(=O)[C@@H](COC1CN(C(=O)C#CC(C)(C)N(C)C)C1)OC)C(=O)N1CCC[C@H](N1)C(=O)OCC(C)(C)C2 (atropisomer, axis not shown) : ____
Data returned: 100 to 1000 nM

Data request: Reported IC50, compound C=CC(=O)N1CCO[C@]2(CCN(C(=O)N(C)[C@H](C(=O)N[C@H]3Cc4nc(cs4)-c4ccc5c(c4)c(c(-c4cccnc4[C@H](C)OC)n5CC(F)(F)F)CC(C)(C)COC(=O)[C@@H]4CCCN(N4)C3=O)C(C)C)C2)C1 (atropisomer, axis not shown) : ____
Data returned: 100 to 1000 nM
